Molecular target: T1, recombinant human PAD4 (human, UniProt Q9UM07 1-663)
T1 construct: also called rhPAD4; hPAD4
T1 sequence (Q9UM07 whole entry): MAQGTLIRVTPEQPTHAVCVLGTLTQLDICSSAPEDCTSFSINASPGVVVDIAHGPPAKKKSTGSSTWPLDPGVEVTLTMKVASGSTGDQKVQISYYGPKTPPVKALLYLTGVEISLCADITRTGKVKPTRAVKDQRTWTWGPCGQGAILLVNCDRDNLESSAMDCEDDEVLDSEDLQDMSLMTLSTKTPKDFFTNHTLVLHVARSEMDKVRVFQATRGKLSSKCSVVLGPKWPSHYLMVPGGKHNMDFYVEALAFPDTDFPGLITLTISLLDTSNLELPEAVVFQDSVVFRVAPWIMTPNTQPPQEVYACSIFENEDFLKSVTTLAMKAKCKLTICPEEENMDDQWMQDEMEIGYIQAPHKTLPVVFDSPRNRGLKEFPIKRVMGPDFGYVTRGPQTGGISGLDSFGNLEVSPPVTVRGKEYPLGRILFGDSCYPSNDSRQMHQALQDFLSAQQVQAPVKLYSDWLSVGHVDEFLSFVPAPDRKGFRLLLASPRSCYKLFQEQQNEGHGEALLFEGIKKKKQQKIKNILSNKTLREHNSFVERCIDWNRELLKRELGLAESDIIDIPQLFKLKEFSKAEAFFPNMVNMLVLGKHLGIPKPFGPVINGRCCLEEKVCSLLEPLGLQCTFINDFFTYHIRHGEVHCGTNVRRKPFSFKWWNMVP
Assay: SPR 37 C, captured antibody, PAD4 analyte, 2 mM EDTA
Measured kon by item
Provide the reading as a plain figure in M⁻¹ s⁻¹.

Consider the following illustrative entries.
>  <BINDER>
hz20-10 (antibody, V domains shown, light constant region not tied to this antibody) VH: QVQLVQSGAEVKKPGASVKVSCKASGYTFTNYGISWVRQAPGQGLEWMGEIYPRSGNTYHNEKFKDRVTMTTDKSTSTAYMELRSLRSDDTAVYYCARSMITTRYWYFDVWGKGTTVTVSS VL: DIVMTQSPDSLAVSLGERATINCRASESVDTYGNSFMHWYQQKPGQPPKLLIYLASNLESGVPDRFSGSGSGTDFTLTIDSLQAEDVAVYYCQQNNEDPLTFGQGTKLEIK

>  <kon / M⁻¹ s⁻¹>
480000

$$$$
>  <BINDER>
hz13-5 (antibody, IgG1, V domains shown, also called clone 13-based hz13-5 antibody; parent hz13-5) VH: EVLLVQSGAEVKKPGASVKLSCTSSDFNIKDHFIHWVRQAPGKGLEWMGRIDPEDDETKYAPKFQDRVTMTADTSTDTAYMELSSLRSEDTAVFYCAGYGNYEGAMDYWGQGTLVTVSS VL: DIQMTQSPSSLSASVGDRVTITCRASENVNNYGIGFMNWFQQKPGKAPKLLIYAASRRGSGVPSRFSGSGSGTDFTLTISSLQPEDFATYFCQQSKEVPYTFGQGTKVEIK

>  <kon / M⁻¹ s⁻¹>
2.1e+06

$$$$

Query binder follows.
## Task Entry hz20-8 (antibody, V domains shown, light constant region not tied to this antibody) VH: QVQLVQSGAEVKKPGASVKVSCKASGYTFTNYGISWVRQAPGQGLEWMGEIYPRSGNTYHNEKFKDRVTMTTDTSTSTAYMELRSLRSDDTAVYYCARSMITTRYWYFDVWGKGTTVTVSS VL: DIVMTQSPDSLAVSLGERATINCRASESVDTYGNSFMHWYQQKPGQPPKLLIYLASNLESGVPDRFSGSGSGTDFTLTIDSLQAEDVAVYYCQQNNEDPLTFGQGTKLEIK needs its kon filled in; supply it.
## Result 360000
